Catalogue of AUC readings, one per entry.
assay-text: AUC in ddY mouse 10 mg/kg, po
Assay type: ADME, organism-based
stated-conditions: in vivo
Use µM·h as the unit, but write only the number.

# compound-structure-string, AUC / µM·h
data = [
    ("O=C1c2[nH]c3ccccc3c2CN2CCC1CC2", 2.26),
    ("CCC12CCN(CC1)Cc1c([nH]c3ccccc13)C2=O.O=S(=O)(O)O", 1.02),
]

Now examine the next entry.
[Q] Value lookup for AUC; key = CC12CCN(CC1)Cc1c([nH]c3ccccc13)C2=O.O=S(=O)(O)O
[A] 3.21

---

assay-text: Distribution coefficient between 1-octanol and phosphate buffer, logD of the compound in pH 7.4 buffer
Type: physicochemical
stated-conditions: 1-octanol/phosphate buffer
measured-property: logD
I only need the number, thanks.

Use the examples below as a reference point.
# molecule, logD
data = [
    ("C/C=C1/CN2CCC1C(=O)c1[nH]c3ccc(OC)cc3c1C2 (racemic)", 3.1),
    ("C/C=C1/CN2CCC1C(=O)c1[nH]c3c(OC)cccc3c1C2 (racemic)", 3.3),
]

[Q] What value of logD has been recorded for this entry: C/C=C1/CN2CCC1C(=O)c1c(c3ccccc3n1C)C2 (racemic)
[A] 3.5

---

In this section, each of the compounds is paired with its reported inhibition in vivo at 30 mg/kg.
Tested on: Mus musculus
assay-text: Analgesic activity in Slc:ddY mouse assessed as inhibition of acetic acid-induced writhings at 30 mg/kg, po relative to control
Type: functional
Response body: numeric value in %, unit text excluded.

Study these solved cases before continuing.
# compound, unit-of-measurement, inhibition in vivo at 30 mg/kg
records = [
    ("CC/C=C1/CN2CCC1C(=O)c1[nH]c3ccccc3c1C2 (racemic)", "%", 0),
    ("CCC1CN2CCC1C(=O)c1[nH]c3ccccc3c1C2 (mixture of isomers)", "%", 50),
    ("C/C=C1/CN2CCC1C(=O)c1[nH]c3c(OC)cccc3c1C2 (racemic)", "%", 34),
    ("CCC12CCN(CC1)Cc1c([nH]c3ccccc13)C2=O.O=S(=O)(O)O", "%", 48),
    ("C/C=C1/CN2CCC1C(=O)c1[nH]c3cccc(OC)c3c1C2 (racemic)", "%", 42),
]

[Q] Notebook: pull reported inhibition in vivo at 30 mg/kg for Mus musculus, entry O=C1c2[nH]c3ccccc3c2CN2CCC1CC2
[A] 73

[Q] Form field - read-out: inhibition in vivo at 30 mg/kg; system: Mus musculus; submitted item: C/C=C1/CN2CCC1C(=O)c1[nH]c3ccccc3c1C2 (racemic)
[A] 49

[Q] For the record C/C=C1/CN2CCC1C(=O)c1[nH]c3cc(OC)ccc3c1C2 (racemic) , what value of inhibition in vivo at 30 mg/kg is listed for Mus musculus?
[A] 31

[Q] GET /values?readout=inhibition in vivo at 30 mg/kg&system=Mus musculus&item= C/C=C1\CN2CCC1C(=O)c1[nH]c3ccccc3c1C2 (racemic)
[A] 18

[Q] Which inhibition in vivo at 30 mg/kg is reported with Mus musculus for this entry: C/C=C1/CN2CCC1C(=O)c1[nH]c3ccc(OC)cc3c1C2 (racemic) ?
[A] 3

[Q] // lookup inhibition in vivo at 30 mg/kg | system=Mus musculus | key= C/C=C1/CN2CCC1C(=O)c1c(c3ccccc3n1C)C2 (racemic)
[A] 30

[Q] Field: inhibition in vivo at 30 mg/kg (Mus musculus). Entry: C/C=C1/CN2CC[C@H]1C(=O)c1[nH]c3ccccc3c1C2.O=S(=O)(O)O
[A] 49

Hello, the source for this data is ChEMBL document CHEMBL4387744, in case you need it.
